assay: Cytotoxicity against human WI38 cells assessed as cell viability at 10 uM after 48 hrs by SRB assay; assay type: cell-based, WI-38; conditions: read-out: Activity
Binary label based on viability at 48 h, 10 µM with cut-off 90%: below gives yes, not below gives no.

>>> class_name("Cc1ccc2c(c1)[C@H]1O[C@H](COCc3ccccc3)[C@@H](OCc3ccccc3)[C@H](OCc3ccccc3)[C@H]1C[S@+]2[O-]")
"no"
>>> class_name("COc1ccc2c(c1)[C@H]1O[C@H](COCc3ccccc3)[C@@H](OCc3ccccc3)[C@H](OCc3ccccc3)[C@H]1C[S@+]2[O-]")
"no"
>>> class_name("[O-][S@+]1C[C@@H]2[C@@H](OCc3ccccc3)[C@H](OCc3ccccc3)[C@@H](COCc3ccccc3)O[C@@H]2c2c1ccc1ccccc21")
"no"
>>> class_name("CC(C)(C)c1ccc2c(c1)[C@H]1O[C@H](COCc3ccccc3)[C@@H](OCc3ccccc3)[C@H](OCc3ccccc3)[C@H]1C[S@@+]2[O-]")
"yes"

* * *

tested on: Plasmodium falciparum; experiment: Antimalarial activity against Plasmodium falciparum 3D7 after 48 hrs by parasite lactate dehydrogenase assay; format: functional, organism-based; conditions: 3D7, 48 h
pIC50: −log10 of the molar value.
Reported Endpoint: pIC50

>>> observed_result("[O-][S@@+]1C[C@@H]2[C@@H](OCc3ccccc3)[C@H](OCc3ccccc3)[C@@H](COCc3ccccc3)O[C@@H]2c2c1ccc1ccccc21")
5.45
>>> observed_result("[O-][S@+]1C[C@@H]2[C@@H](OCc3ccccc3)[C@H](OCc3ccccc3)[C@@H](COCc3ccccc3)O[C@@H]2c2c1ccc1ccccc21")
5.59
>>> observed_result("O=S1(=O)C[C@@H]2[C@@H](OCc3ccccc3)[C@H](OCc3ccccc3)[C@@H](COCc3ccccc3)O[C@H]2c2ccccc21")
5.38
>>> observed_result("CC(C)(C)c1ccc2c(c1)[C@H]1O[C@H](COCc3ccccc3)[C@@H](OCc3ccccc3)[C@H](OCc3ccccc3)[C@H]1C[S@+]2[O-]")
6.52
>>> observed_result("Cc1cccc2c1[S@+]([O-])C[C@@H]1[C@@H](OCc3ccccc3)[C@H](OCc3ccccc3)[C@@H](COCc3ccccc3)O[C@H]21")
5.20
>>> observed_result("c1ccc(COC[C@H]2O[C@@H]3c4ccccc4SC[C@@H]3[C@@H](OCc3ccccc3)[C@@H]2OCc2ccccc2)cc1")
5.46
>>> observed_result("CC(C)(C)c1ccc2c(c1)[C@H]1O[C@H](COCc3ccccc3)[C@@H](OCc3ccccc3)[C@H](OCc3ccccc3)[C@H]1C[S@@+]2[O-]")
5.88
>>> observed_result("Cc1cccc2c1S(=O)(=O)C[C@@H]1[C@@H](OCc3ccccc3)[C@H](OCc3ccccc3)[C@@H](COCc3ccccc3)O[C@H]21")
5.63
>>> observed_result("CC(C)(C)c1ccc2c(c1)[C@H]1O[C@H](COCc3ccccc3)[C@@H](OCc3ccccc3)[C@H](OCc3ccccc3)[C@H]1CS2(=O)=O")
6.41
>>> observed_result("O=S1(=O)C[C@@H]2[C@@H](OCc3ccccc3)[C@H](OCc3ccccc3)[C@@H](COCc3ccccc3)O[C@@H]2c2c1ccc1ccccc21")
5.68
>>> observed_result("COc1ccc2c(c1)[C@@H]1O[C@H](COCc3ccccc3)[C@@H](OCc3ccccc3)[C@H](OCc3ccccc3)[C@H]1CS2(=O)=O")
5.60
>>> observed_result("Cc1ccc2c(c1)[C@H]1O[C@H](COCc3ccccc3)[C@@H](OCc3ccccc3)[C@H](OCc3ccccc3)[C@H]1C[S@@+]2[O-]")
5.59
>>> observed_result("COc1ccc2c(c1)[C@H]1O[C@H](COCc3ccccc3)[C@@H](OCc3ccccc3)[C@H](OCc3ccccc3)[C@H]1CS2(=O)=O")
5.74
>>> observed_result("COc1ccc2c(c1)[C@H]1O[C@H](COCc3ccccc3)[C@@H](OCc3ccccc3)[C@H](OCc3ccccc3)[C@H]1C[S@+]2[O-]")
5.56
>>> observed_result("Cc1cccc2c1S(=O)(=O)C[C@@H]1[C@@H](OCc3ccccc3)[C@H](OCc3ccccc3)[C@@H](COCc3ccccc3)O[C@@H]21")
5.47

* * *

test: Cytotoxicity against human WI38 cells assessed as cell viability at 10 uM after 48 hrs by SRB assay; type: cell-based, WI-38; conditions: read-out: Activity
Friendly reminder: viability at 48 h, 10 µM below 90% is Condition met, at or above is Condition not met.

>>> class_name("c1ccc(COC[C@H]2O[C@@H]3c4ccccc4SC[C@@H]3[C@@H](OCc3ccccc3)[C@@H]2OCc2ccccc2)cc1")
"Condition met"
>>> class_name("[O-][S@@+]1C[C@@H]2[C@@H](OCc3ccccc3)[C@H](OCc3ccccc3)[C@@H](COCc3ccccc3)O[C@@H]2c2c1ccc1ccccc21")
"Condition not met"
>>> class_name("CC(C)(C)c1ccc2c(c1)[C@H]1O[C@H](COCc3ccccc3)[C@@H](OCc3ccccc3)[C@H](OCc3ccccc3)[C@H]1C[S@+]2[O-]")
"Condition not met"

* * *

experiment: Cytotoxicity against human WI38 cells assessed as cell viability at 0.01 uM after 48 hrs by SRB assay; format: cell-based, WI-38; settings: read-out: Activity
viability at 48 h, 0.01 µM values, listed per item
Reported Endpoint: viability at 48 h, 0.01 µM

>>> observed_result("Cc1ccc2c(c1)[C@H]1O[C@H](COCc3ccccc3)[C@@H](OCc3ccccc3)[C@H](OCc3ccccc3)[C@H]1CS2(=O)=O")
"99.5%"
>>> observed_result("COc1ccc2c(c1)[C@H]1O[C@H](COCc3ccccc3)[C@@H](OCc3ccccc3)[C@H](OCc3ccccc3)[C@H]1CS2")
"97%"
>>> observed_result("c1ccc(COC[C@H]2O[C@@H]3c4ccccc4SC[C@@H]3[C@@H](OCc3ccccc3)[C@@H]2OCc2ccccc2)cc1")
"100%"
>>> observed_result("CC(C)(C)c1ccc2c(c1)[C@H]1O[C@H](COCc3ccccc3)[C@@H](OCc3ccccc3)[C@H](OCc3ccccc3)[C@H]1CS2(=O)=O")
"96.7%"
>>> observed_result("[O-][S@@+]1C[C@@H]2[C@@H](OCc3ccccc3)[C@H](OCc3ccccc3)[C@@H](COCc3ccccc3)O[C@@H]2c2c1ccc1ccccc21")
"96%"

* * *

experiment: Cytotoxicity against human WI38 cells assessed as cell viability at 1 uM after 48 hrs by SRB assay; type: cell-based, WI-38; details: read-out: Activity
Reported Endpoint: viability at 48 h, 1 µM (%)

>>> observed_result("[O-][S@@+]1C[C@@H]2[C@@H](OCc3ccccc3)[C@H](OCc3ccccc3)[C@@H](COCc3ccccc3)O[C@@H]2c2c1ccc1ccccc21")
96
>>> observed_result("O=S1(=O)C[C@@H]2[C@@H](OCc3ccccc3)[C@H](OCc3ccccc3)[C@@H](COCc3ccccc3)O[C@@H]2c2ccccc21")
97
>>> observed_result("Cc1cccc2c1SC[C@@H]1[C@@H](OCc3ccccc3)[C@H](OCc3ccccc3)[C@@H](COCc3ccccc3)O[C@H]21")
97.5
>>> observed_result("Cc1ccc2c(c1)[C@H]1O[C@H](COCc3ccccc3)[C@@H](OCc3ccccc3)[C@H](OCc3ccccc3)[C@H]1CS2(=O)=O")
94.6

* * *

Documented IC50 across a set of compounds
tested on: Plasmodium falciparum; assay: Antimalarial activity against Plasmodium falciparum 3D7 after 48 hrs by parasite lactate dehydrogenase assay; assay type: functional, organism-based; conditions: 3D7, 48 h
Reported Endpoint: IC50 (µM)

>>> observed_result("Cc1cccc2c1[S@@+]([O-])C[C@@H]1[C@@H](OCc3ccccc3)[C@H](OCc3ccccc3)[C@@H](COCc3ccccc3)O[C@H]21")
4.13
>>> observed_result("COc1ccc2c(c1)[C@H]1O[C@H](COCc3ccccc3)[C@@H](OCc3ccccc3)[C@H](OCc3ccccc3)[C@H]1C[S@@+]2[O-]")
2.21

* * *

assay: Cytotoxicity against human WI38 cells assessed as cell viability at 100 uM after 48 hrs by SRB assay; format: cell-based, WI-38; conditions: read-out: Activity
Reported Endpoint: viability at 48 h, 100 µM (%)

>>> observed_result("CC(C)(C)c1ccc2c(c1)[C@H]1O[C@H](COCc3ccccc3)[C@@H](OCc3ccccc3)[C@H](OCc3ccccc3)[C@H]1C[S@+]2[O-]")
55.9
>>> observed_result("CC(C)(C)c1ccc2c(c1)[C@H]1O[C@H](COCc3ccccc3)[C@@H](OCc3ccccc3)[C@H](OCc3ccccc3)[C@H]1C[S@@+]2[O-]")
60.2
>>> observed_result("Cc1ccc2c(c1)[C@H]1O[C@H](COCc3ccccc3)[C@@H](OCc3ccccc3)[C@H](OCc3ccccc3)[C@H]1C[S@+]2[O-]")
69.7
>>> observed_result("Cc1cccc2c1[S@@+]([O-])C[C@@H]1[C@@H](OCc3ccccc3)[C@H](OCc3ccccc3)[C@@H](COCc3ccccc3)O[C@H]21")
67.1
